Recorded values, source patent US7115629B2.

# experimental system: human M2 receptors (Homo sapiens, UniProt P08172)
# Construct: purchased Receptor Biology; host or cells: CHO-K1 cells transfected with the human receptor (membranes)
# Sequence (P08172 1-466): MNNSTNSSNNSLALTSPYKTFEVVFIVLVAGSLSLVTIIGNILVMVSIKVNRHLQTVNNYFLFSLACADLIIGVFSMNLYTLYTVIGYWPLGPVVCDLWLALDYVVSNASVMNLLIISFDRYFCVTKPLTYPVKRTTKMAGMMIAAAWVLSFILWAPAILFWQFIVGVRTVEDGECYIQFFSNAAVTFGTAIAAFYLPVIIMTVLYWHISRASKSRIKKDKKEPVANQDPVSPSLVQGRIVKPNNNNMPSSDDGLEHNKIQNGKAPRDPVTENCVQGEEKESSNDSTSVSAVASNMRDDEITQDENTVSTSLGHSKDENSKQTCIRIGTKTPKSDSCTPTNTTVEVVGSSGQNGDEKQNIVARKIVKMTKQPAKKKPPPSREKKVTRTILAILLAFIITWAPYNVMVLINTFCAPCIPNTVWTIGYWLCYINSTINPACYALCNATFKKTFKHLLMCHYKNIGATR
# experiment description: Binding test to cloned human M2 muscarinic receptor ([3H]-NMS displacement, CHO-K1 membranes), reported as M2/M3 ratio
# condition notes: value greater than 1 indicates selectivity for the M3 receptor
Param threshold (40) applies to M2/M3 (ratio between M2 and M3 receptor affinities); output class 1 when value >= threshold, class 0 when value < threshold.

molecule: Cc1ccccc1N(Cc1ccc(CO)cc1)C(=O)OC1CN2CCC1CC2 (centres unmarked) [Example 42]
experimental system: human M2 receptors (Homo sapiens, UniProt P08172)
label class: class 0

molecule: Cc1cccc(N(Cc2ccc(F)cc2)C(=O)OC2C[N+]3(C)CCC2CC3)c1.[I-] (centres unmarked) [Example 67]
experimental system: human M2 receptors (Homo sapiens, UniProt P08172)
label class: class 0

molecule: O=C(OC1CN2CCC1CC2)N(Cc1ccc(F)c(F)c1)c1ccccc1 (centres unmarked) [Example 26]
experimental system: human M2 receptors (Homo sapiens, UniProt P08172)
label class: class 1

molecule: O=C(OC1CN2CCC1CC2)N(Cc1ccccc1)c1ccc2c(c1)CCC2 (centres unmarked) [Example 12]
experimental system: human M2 receptors (Homo sapiens, UniProt P08172)
label class: class 0

Then this molecule:
[Q] Item Cc1cccc(N(Cc2cc(F)c(F)cc2F)C(=O)OC2CN3CCC2CC3)c1 (centres unmarked) [Example 35] with M2/M3 (ratio between M2 and M3 receptor affinities) of 40 or above?
[A] class 1
